Origin of values: ChEMBL document CHEMBL4043200

Target: Phosphatidylinositol 4,5-bisphosphate 3-kinase catalytic subunit alpha isoform (Homo sapiens) (UniProt P42336)
Sequence (P42336 whole entry, canonical isoform): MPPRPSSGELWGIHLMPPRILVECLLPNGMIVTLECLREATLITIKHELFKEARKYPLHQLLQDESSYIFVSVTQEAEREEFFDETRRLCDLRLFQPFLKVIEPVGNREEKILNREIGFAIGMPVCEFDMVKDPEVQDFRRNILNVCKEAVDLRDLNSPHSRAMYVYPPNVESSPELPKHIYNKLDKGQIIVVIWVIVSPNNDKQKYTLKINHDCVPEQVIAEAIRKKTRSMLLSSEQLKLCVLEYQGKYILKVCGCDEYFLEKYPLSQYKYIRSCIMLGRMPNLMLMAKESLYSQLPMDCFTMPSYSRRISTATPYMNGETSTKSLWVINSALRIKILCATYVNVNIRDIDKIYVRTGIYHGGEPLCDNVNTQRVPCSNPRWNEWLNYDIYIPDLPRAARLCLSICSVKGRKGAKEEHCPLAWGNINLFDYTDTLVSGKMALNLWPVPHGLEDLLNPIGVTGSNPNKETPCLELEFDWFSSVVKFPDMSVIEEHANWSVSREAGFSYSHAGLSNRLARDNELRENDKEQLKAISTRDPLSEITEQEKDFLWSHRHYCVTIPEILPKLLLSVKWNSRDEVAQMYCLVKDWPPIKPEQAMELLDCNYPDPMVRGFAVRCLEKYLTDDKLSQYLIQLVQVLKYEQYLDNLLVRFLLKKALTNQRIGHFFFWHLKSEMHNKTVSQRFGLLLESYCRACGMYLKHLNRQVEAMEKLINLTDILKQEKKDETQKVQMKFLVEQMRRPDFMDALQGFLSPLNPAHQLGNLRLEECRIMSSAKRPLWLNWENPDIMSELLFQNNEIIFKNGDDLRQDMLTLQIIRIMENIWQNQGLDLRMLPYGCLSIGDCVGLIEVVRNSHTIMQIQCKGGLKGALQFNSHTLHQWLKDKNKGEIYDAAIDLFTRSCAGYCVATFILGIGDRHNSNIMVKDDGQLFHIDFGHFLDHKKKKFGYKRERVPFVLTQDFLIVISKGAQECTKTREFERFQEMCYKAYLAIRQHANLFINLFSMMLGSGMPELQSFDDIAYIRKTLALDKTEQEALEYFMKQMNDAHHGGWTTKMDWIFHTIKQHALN
Assay: Inhibition of wild type PI3K-alpha (unknown origin) assessed as decrease in ATP consumption at 10 uM using phosphotidylinositol bisphosphate and ATP measured after 60 mins by Kinase-Glo reagent based luminescence assay
Each entry falls into one class according to its inhibition; the ranges are small value (below 20%), mid value (20% to below 30%), large value (30% or more)

Smiles Text | Class Name
O=c1nc(N2CCOCC2)oc2c(-c3ccc(CO)cc3)c(OCc3ccccc3)ccc12 | large value
COc1ccc(-c2c(OCc3ccccn3)ccc3c(=O)nc(N4CCOCC4)oc23)cc1 | mid value
O=c1nc(N2CCOCC2)oc2c(-c3ccsc3)c(OCc3ccccn3)ccc12 | small value
COc1ccc(-c2c(OCCBr)ccc3c(=O)nc(N4CCOCC4)oc23)cc1 | large value
Nc1cccc(-c2c(OCc3ccccc3)ccc3c(=O)nc(N4CCOCC4)oc23)c1 | large value
Nc1cccc(-c2c(OCc3ccccn3)ccc3c(=O)nc(N4CCOCC4)oc23)c1 | small value
O=c1nc(N2CCOCC2)oc2c(-c3ccc(Cl)cc3)c(OCc3ccccc3)ccc12 | small value
COc1ccc(-c2c(OCCN3CCN(C)CC3)ccc3c(=O)nc(N4CCOCC4)oc23)cc1 | large value
O=c1nc(N2CCOCC2)oc2c(-c3ccsc3)c(OCc3ccncc3)ccc12 | mid value
O=c1nc(N2CCOCC2)oc2c(-c3cccnc3)c(OCc3ccccc3)ccc12 | small value
CN1CCN(CCOc2ccc3c(=O)nc(N4CCOCC4)oc3c2-c2ccccc2)CC1 | mid value
O=c1nc(N2CCOCC2)oc2c(-c3cccs3)c(OCc3ccncc3)ccc12 | small value
